target: Sodium-dependent serotonin transporter (Rattus norvegicus)
Sequence (P31652 whole entry): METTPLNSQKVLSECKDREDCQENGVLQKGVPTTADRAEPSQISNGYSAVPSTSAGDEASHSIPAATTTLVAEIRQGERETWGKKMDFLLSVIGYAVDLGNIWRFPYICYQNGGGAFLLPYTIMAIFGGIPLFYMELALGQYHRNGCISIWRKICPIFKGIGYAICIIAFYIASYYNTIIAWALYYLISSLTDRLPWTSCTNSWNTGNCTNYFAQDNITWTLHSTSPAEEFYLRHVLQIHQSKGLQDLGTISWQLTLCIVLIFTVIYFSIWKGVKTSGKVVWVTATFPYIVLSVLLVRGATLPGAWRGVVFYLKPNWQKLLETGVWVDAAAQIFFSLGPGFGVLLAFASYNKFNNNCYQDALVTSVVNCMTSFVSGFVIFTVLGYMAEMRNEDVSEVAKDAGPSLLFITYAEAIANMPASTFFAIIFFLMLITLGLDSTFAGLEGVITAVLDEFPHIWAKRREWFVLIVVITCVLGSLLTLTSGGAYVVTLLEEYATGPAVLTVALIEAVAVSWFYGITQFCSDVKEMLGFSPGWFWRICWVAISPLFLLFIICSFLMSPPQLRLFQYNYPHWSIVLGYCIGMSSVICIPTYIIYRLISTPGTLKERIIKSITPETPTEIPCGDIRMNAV
Classes by Ki: lower: < 3 nM; middle: ≥ 3 nM and < 70 nM; upper: ≥ 70 nM

> print(dat)
                                   compound                           target.of.assay  classification
1  C#Cc1ccc([C@H]2CC3CC[C@H](C2C(=O)OC)N3C)cc1 (some centres not stated)  Sodium-dependent serotonin transporter (Rattus norvegicus)           lower

Q. Sort COC(=O)C1[C@@H](c2ccc3ccccc3c2)CC2CC[C@H]1N2C (some centres not stated) into one of the categories.
A. lower

Q. Would you mind sorting COC(=O)C1[C@@H](c2ccc(C#CCCCc3ccccc3)cc2)CC2CC[C@H]1N2C (some centres not stated) into the appropriate category?
A. upper

Q. Which bin, given its Ki, does COC(=O)C1[C@@H](c2ccc(C#Cc3ccccc3)cc2)CC2CC[C@H]1N2C (some centres not stated) occupy?
A. middle

Q. Assign a category based on measured Ki for COC(=O)C1[C@@H](c2ccc(-c3ccccc3)cc2)CC2CC[C@H]1N2C (some centres not stated) and give only the class name.
A. middle

Q. The entry to classify is COC(=O)C1[C@@H](c2ccc(CCc3ccccc3)cc2)CC2CC[C@H]1N2C (some centres not stated) ; which class holds it?
A. middle

Q. Could you tell me which band COC(=O)C1[C@@H](c2ccc(C#CCCc3ccccc3)cc2)CC2CC[C@H]1N2C (some centres not stated) belongs to?
A. upper

Q. Each compound maps to one class by Ki. Which class for COC(=O)C1[C@@H](c2ccc(/C=C/c3ccccc3)cc2)CC2CC[C@H]1N2C (some centres not stated) ?
A. middle

Q. Which Ki band matches COC(=O)C1[C@@H](c2ccc(C#CCc3ccccc3)cc2)CC2CC[C@H]1N2C (some centres not stated) ?
A. lower

Q. Would you mind sorting CC#Cc1ccc([C@H]2CC3CC[C@H](C2C(=O)OC)N3C)cc1 (some centres not stated) into the appropriate category?
A. lower
